- Tested on: T-47D breast
- Method notes: NCI-60 one-dose screen, 48 h
- Condition details: 10 µM unless noted
About 83,000 compounds went through this panel and 20% of them were active in at least one assay; those are over-represented in the sample as a whole. Activity calls are given as the source filed them. The calls were made as follows: active = growth percent below 10; inactive = the rest.
# valid calls are Y (active), N (inactive); nothing else

Previously resolved entries follow.
Compound	Measured on	Category
Cn1cc(C(=O)c2nc(-c3c[nH]c4ccc(F)cc34)no2)c2cc(F)ccc21	T-47D breast	N
CC1=C[C@H]2c3c(c(O)c(O)c4oc5c(C)cccc5c(=O)c34)[C@H](c3cc(O)c(O)c4oc5c(C)cccc5c(=O)c34)[C@H]2C(C)(C)C1	T-47D breast	N
COc1ccc(-c2nc3ccc(-c4nc5ccc(N6CCN(c7ccccc7)CC6)cc5[nH]4)cc3[nH]2)cc1OC	T-47D breast	Y
Cc1cc2c3ccccc3ccc2[n+]2ccccc12	T-47D breast	Y
COc1ccc(-n2nc(C)c3c(Nc4ccc(NC(=O)Nc5ccc(Cl)c(C(F)(F)F)c5)cc4)ncnc32)cc1	T-47D breast	Y
CN1CCN(c2nc(NCCCCNc3ccnc4cc(Cl)ccc34)c3ccccc3n2)CC1	T-47D breast	N
CSc1nc(NCCN2CCOCC2)c(C#N)c(-c2cccc([N+](=O)[O-])c2)n1	T-47D breast	N
Nc1n[nH]c2ccc([C@@H]3Nc4ccc5cn[nH]c5c4[C@H]4C5CCC(C5)[C@@H]34)cc12 (stereo partly drawn)	T-47D breast	N
CNC(=O)c1cc(Oc2ccc(NC(=O)Nc3ccc(Cl)c(OC(F)(F)F)c3)c(F)c2)ccn1	T-47D breast	Y
Cn1c(=O)c2c(nc3n(-c4ccc(Cl)cc4Cl)c(Sc4nc(-c5ccccc5)c(C#N)c(=O)[nH]4)cn23)n(C)c1=O	T-47D breast	N

Give the logged outcome of this assay for the following compound: "N#Cc1c(-c2ccc(Cl)cc2)nc(N=Nc2c(O)[nH]c3ccc(Cl)cc23)nc1N1CCOCC1"
N

Same thing, different compound: "COc1cccc(/C=N/NC(=O)c2ccccc2Nc2ccnc(C(F)(F)F)c2)c1O"
N

Same thing, different compound: "O=C1Nc2cc(-c3ccc(O)cc3)ccc2/C1=C/c1ccc[nH]1"
Y

* * *

- Test system: SR leukemia
- Method notes: NCI-60 one-dose screen, 48 h
- Condition details: 10 µM unless noted
About 83,000 compounds went through this panel and 20% of them were active in at least one assay; those are over-represented in the sample as a whole. Calls of active or inactive are those of the source. Rule for the calls: active = growth percent below 10; inactive = the rest.
# valid calls are active, inactive; nothing else

Previously resolved entries follow.
Compound	Measured on	Category
C#CCOc1ccc2ncnc(N3CCC(NC(=O)CCl)CC3)c2c1	SR leukemia	inactive
COc1ccc(C(=O)/C=C/c2cccnc2Nc2cc(OC)c(OC)c(OC)c2)cc1	SR leukemia	active
Cn1nc(N)c2cc([C@@H]3Nc4ccc5[nH]ncc5c4[C@H]4C5CCC(C5)[C@@H]34)ccc21 (some centres undefined)	SR leukemia	inactive
CCN(CC)c1ccc(-c2cc(-c3cc(OC)c(OC)c(OC)c3)nc(N3CCOCC3)c2C#N)cc1	SR leukemia	active
COc1cccc(NC(=O)c2sc3nc(C)c(C(C)=O)cc3c2N)c1	SR leukemia	inactive

Give the logged outcome of this assay for the following compound: "O=C1c2cccc3cccc(c23)C(=O)N1CCCCCN1CCN(CCCCCOc2ccc(-c3nc4ccc(N5CCOCC5)cc4[nH]3)cc2)CC1"
active

Same thing, different compound: "C#CCOc1ccc2ncnc(N3CCN(C(=O)CCl)CC3)c2c1"
inactive

Same thing, different compound: "O=C(NCCN1CCOCC1)Nc1ccc(-c2cc3c(Nc4ccc(Oc5cccc(C(F)(F)F)c5)c(Cl)c4)ncnc3s2)cc1"
active

Same thing, different compound: "COc1cc2c(cc1-c1c(C)noc1C)ncc1nc(C3CCOCC3)n([C@@H](C)COC(F)F)c12"
inactive

Same thing, different compound: "COc1ccc(C(=S)N2CCN(c3cccc(Cl)c3)CC2)cc1"
inactive

Same thing, different compound: "O=C1/C(=C/c2ccc3c(c2)OCO3)SC(=S)N1CCc1ccc(O)cc1"
inactive

Same thing, different compound: "CN(C)c1ccc(N=Nc2ccccn2)c(O)c1"
active

Same thing, different compound: "Cc1cc(C)nc(SC2=C(Nc3cc(Cl)ccc3O)C(=O)N(Cc3ccccc3)C2=O)n1"
inactive

Same thing, different compound: "Cn1cc(-c2nonc2-c2cn(C)c3ccc(F)cc23)c2cc(F)ccc21"
inactive

Same thing, different compound: "C=C1c2nc3ccccc3n2C=C(c2cccc(Cl)c2)N1Cc1ccc(OC)cc1"
active

Same thing, different compound: CCOc1cc2ncc(C#N)c(Nc3ccc(OCc4cccc(F)c4)c(Cl)c3)c2cc1NC(=O)CC1CCSS1 (centres undefined)
active

Same thing, different compound: "NC(=O)c1cc(I)ccc1NC(=O)/C=C/c1ccccc1Cl"
active

Same thing, different compound: "CC(=O)OC[C@H]1O[C@H](OC(C)=O)[C@H](NC(=O)/C=C/CCl)[C@@H](OC(C)=O)[C@@H]1OC(C)=O"
inactive

Same thing, different compound: COc1cccc(C2=NN3C(C2)c2cc(Br)cc(OC)c2OC32CCN(Cc3ccccc3)CC2)c1 (centres undefined)
inactive
